Data origin, for the record: BindingDB's records for PubMed 9618428

Quick reference for Ki among some compounds
target: Melatonin receptor type 1A (Homo sapiens, UniProt P48039)
Sequence (P48039 whole entry): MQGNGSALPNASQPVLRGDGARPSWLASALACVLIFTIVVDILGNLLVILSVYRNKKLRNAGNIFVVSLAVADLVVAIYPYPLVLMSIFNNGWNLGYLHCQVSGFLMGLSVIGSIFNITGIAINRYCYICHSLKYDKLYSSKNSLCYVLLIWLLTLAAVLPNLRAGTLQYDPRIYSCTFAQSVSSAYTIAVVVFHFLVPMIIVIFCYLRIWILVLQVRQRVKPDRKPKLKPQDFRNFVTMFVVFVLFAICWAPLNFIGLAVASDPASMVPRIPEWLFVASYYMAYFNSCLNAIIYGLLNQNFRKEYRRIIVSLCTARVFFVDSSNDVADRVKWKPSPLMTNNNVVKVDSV
measure: Ki (nM)

| compound | number |
| --- | --- |
| COc1cc2c(CCNC(C)=O)c[nH]c2cc1O [melatonin, 6-Hydroxy] | 0.54 |
| CC(=O)NCCc1c[nH]c2ccc(O)cc12 [N-Acetyltryptamine,5-Hydroxy] | 79.4 |
